Cited source: patent US20090142347A1

Assignment: determine reported pKi for the given molecules.
study-system: hTNALP Q434 (Homo sapiens, UniProt P05186, H451Q)
Sequence (P05186 18-501 H451Q): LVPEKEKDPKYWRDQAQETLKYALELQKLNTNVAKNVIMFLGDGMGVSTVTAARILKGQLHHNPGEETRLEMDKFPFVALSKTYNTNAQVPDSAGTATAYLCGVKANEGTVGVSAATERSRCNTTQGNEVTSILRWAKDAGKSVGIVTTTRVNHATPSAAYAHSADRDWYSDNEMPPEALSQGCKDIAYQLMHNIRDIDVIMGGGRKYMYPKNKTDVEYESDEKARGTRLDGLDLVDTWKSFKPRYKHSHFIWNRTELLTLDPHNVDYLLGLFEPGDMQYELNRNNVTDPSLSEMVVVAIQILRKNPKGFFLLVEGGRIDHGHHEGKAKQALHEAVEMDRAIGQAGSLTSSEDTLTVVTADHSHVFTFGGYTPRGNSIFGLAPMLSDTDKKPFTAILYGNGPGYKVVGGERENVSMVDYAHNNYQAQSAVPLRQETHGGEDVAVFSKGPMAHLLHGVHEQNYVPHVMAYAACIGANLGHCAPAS
test-protocol: biochemical
API: returns pKi as number; meaning -log10 of concentration in mol/L.

Query string: Record request: pKi value, item N[C@@H](Cc1ccccc1)C(=O)O [L-Phe, L-phenylalanine]
Result string: 2.01

Query string: Follow-up entry: N=C(N)NCCCC[C@H](N)C(=O)O [L-hArg, L-homoarginine]
Result string: 2.70

====

Assignment: determine reported pKi for the given compounds.
study-system: hPLALP R428 (Homo sapiens, UniProt P05187, D450R)
Sequence (P05187 23-506 D450R limits assumed): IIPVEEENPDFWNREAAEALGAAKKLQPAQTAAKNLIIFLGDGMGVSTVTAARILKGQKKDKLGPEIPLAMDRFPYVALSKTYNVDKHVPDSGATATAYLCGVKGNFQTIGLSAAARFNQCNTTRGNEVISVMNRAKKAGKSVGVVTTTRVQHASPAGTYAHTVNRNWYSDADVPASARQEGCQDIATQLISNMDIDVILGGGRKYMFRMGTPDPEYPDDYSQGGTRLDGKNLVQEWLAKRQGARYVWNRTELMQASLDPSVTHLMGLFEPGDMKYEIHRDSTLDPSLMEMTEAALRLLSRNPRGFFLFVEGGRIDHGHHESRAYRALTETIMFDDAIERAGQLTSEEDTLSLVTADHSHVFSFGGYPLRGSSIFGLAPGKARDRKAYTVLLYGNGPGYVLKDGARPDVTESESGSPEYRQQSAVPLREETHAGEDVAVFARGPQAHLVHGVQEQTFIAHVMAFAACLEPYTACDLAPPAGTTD
test-protocol: Ki of uncompetitive inhibitors (pNPP substrate)
condition-parameters: hPLALP mutant R428; read-out: Ki for various inhibitors
API: returns pKi as number; meaning -log10 of concentration in mol/L.

Query string: Record request: pKi value, item N[C@@H](Cc1ccccc1)C(=O)O [L-Phe, L-phenylalanine]
Result string: 3.27

Query string: Follow-up entry: N=C(N)NCCCC[C@H](N)C(=O)O [L-hArg, L-homoarginine]
Result string: 1.44

Query string: Follow-up entry: c1ccc([C@H]2CN3CCSC3=N2)cc1 [Levamisole]
Result string: 3.34
